Target: human A3AR (Homo sapiens)
Construct: expressed in transfected cells
Sequence (P0DMS8 whole entry): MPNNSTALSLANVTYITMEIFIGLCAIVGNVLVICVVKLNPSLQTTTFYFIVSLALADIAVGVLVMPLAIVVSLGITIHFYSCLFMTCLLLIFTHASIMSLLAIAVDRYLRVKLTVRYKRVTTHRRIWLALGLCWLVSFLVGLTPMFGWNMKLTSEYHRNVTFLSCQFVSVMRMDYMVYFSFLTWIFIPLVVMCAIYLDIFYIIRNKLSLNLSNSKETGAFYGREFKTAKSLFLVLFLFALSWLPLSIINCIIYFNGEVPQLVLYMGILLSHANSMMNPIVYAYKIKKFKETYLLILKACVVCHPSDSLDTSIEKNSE
Experiment: LOPAC library primary screen: single concentration (10 μM) inhibition of 25 nM CA200645 binding, PHERAstar FS
Structures can show the parent of a compound that is named as a salt.
Measured endpoint: % 25 nM CA200645 binding

| Molecule | Measured endpoint | Val |
| --- | --- | --- |
| CC(C)(C)c1ccc(/C=C/C(=O)Nc2ccc3c(c2)OCCO3)cc1 | % 25 nM CA200645 binding | 59.0 ± 6.4% |
| Fc1cccc(/C=N/N=C/c2cccc(F)c2)c1 | % 25 nM CA200645 binding | 94.8 ± 1.4% |
| Cn1cc(C(=O)OCC2CCN(CCNS(C)(=O)=O)CC2)c2ccccc21 | % 25 nM CA200645 binding | 92.8 ± 8.0% |
| CCn1cc(C(=O)[O-])c(=O)c2ccc(C)nc21.[Na+] [Nalidixic acid sodium] | % 25 nM CA200645 binding | 106.1 ± 13.7% |
| CCN1CCC[C@H]1CNC(=O)c1c(O)c(Cl)cc(Cl)c1OC.O=C(O)C(O)C(O)C(=O)O (racemic) [S(+)-Raclopride L-tartrate] | % 25 nM CA200645 binding | 98.6 ± 4.9% |
| CN1CCC[C@@H]1Cc1c[nH]c2ccc(CCS(=O)(=O)c3ccccc3)cc12 [Eletriptan hydrobromide] | % 25 nM CA200645 binding | 96.9 ± 5.3% |
| Oc1ccc(-c2nc(-c3ccncc3)c(-c3ccc(F)cc3)[nH]2)cc1 | % 25 nM CA200645 binding | 68.5 ± 12.1% |
| COC(=O)Nc1nc2ccc(C(=O)c3cccs3)cc2[nH]1 | % 25 nM CA200645 binding | 79.0 ± 5.7% |
| CC(=O)OC(C)C[N+](C)(C)C.[Cl-] (stereo not drawn) [Acetyl-beta-methylcholine chloride] | % 25 nM CA200645 binding | 91.4 ± 19.2% |
| FC(F)(F)c1ccccc1-n1ccnc1 [1-[2-(Trifluoromethyl)phenyl]imidazole] | % 25 nM CA200645 binding | 101.2 ± 9.4% |
| CO[C@@]1(NC(=O)CSCC#N)C(=O)N2C(C(=O)O)=C(CSc3nnnn3C)CS[C@@H]21 [Cefmetazole sodium] | % 25 nM CA200645 binding | 84.6 ± 22.3% |
| CN1CCc2cc(Cl)c(O)cc2[C@@H](c2ccccc2)C1.Cl [R(+)-SCH-23390 hydrochloride] | % 25 nM CA200645 binding | 96.2 ± 12.3% |
| Clc1nccc2c1ccc1ccccc12 | % 25 nM CA200645 binding | 87.1 ± 7.0% |
| Cc1nc(N=Nc2cc(S(=O)(=O)[O-])c3cc([N+](=O)[O-])cc(S(=O)(=O)[O-])c3c2)c(COP(=O)([O-])[O-])c(C=O)c1O.[Na+].[Na+].[Na+].[Na+] [PPNDS tetrasodium] | % 25 nM CA200645 binding | 100.4 ± 12.5% |
| CS(=O)(=O)O.Cn1cc(C(F)(F)F)nc1-c1ccc(OCC(O)CNCCOc2ccc(O)c(C(N)=O)c2)cc1 (centres unmarked) [CGP 20712A methanesulfonate] | % 25 nM CA200645 binding | 106.4 ± 13.7% |
| CC(C)[C@H]1c2ccc(F)cc2CC[C@@]1(CCN(C)CCCc1nc2ccccc2[nH]1)OC(=O)C1CC1 | % 25 nM CA200645 binding | 109.8 ± 31.5% |
| Cc1cn(C2CC(N=[N+]=[N-])C(CO)O2)c(=O)[nH]c1=O (centres unmarked) | % 25 nM CA200645 binding | 82.3 ± 18.1% |

* * *

Target: human A3AR (Homo sapiens)
Construct: expressed in transfected cells
Experiment: LOPAC library primary screen: single concentration (10 μM) inhibition of 25 nM CA200645 binding, PHERAstar FS
Settings: % of control wells (1% DMSO and 25 nM CA200645); compounds at 10 µM; whole live cells expressing the A3AR; mean ± SD, three experiments in duplicate
Structures can show the parent of a compound that is named as a salt.
Overview of reported % 25 nM CA200645 binding across a group of compounds:

| Compound | % 25 nM CA200645 binding / % |
| --- | --- |
| CCCCNc1c(C(=O)OCC)c(C)nc2c1cnn2CC [Tracazolate] | 98.9 |
| Oc1ccc(/C=C/c2cc(O)cc(O)c2)cc1 [Resveratrol] | 100.3 |
| Cc1nc2sccn2c(=O)c1CCN1CCC(=C(c2ccc(F)cc2)c2ccc(F)cc2)CC1 [Ritanserin] | 79.4 |
| Cc1nc2c([nH]1)c(=O)n(C)c(=O)n2Cc1ccco1 [Furafylline] | 49.5 |
| C=C1C(=O)O[C@H]2[C@H]1CC/C(C)=C/CC[C@@]1(C)O[C@@H]21 [Parthenolide] | 98.5 |
| O=C(O)C1=CCNCC1 [Isoguvacine hydrochloride] | 87.4 |
| N=C(N)c1ccc(N)cc1 [4-Aminobenzamidine dihydrochloride] | 97.4 |
| COc1cc2c(cc1OC)-c1c/c(=N\c3c(C)cc(C)cc3C)n(C)c(=O)n1CC2 [Trequinsin hydrochloride] | 88.3 |
| O=C(O)/C=C/c1ccc(O)c(O)c1 [Caffeic Acid] | 100.0 |

* * *

Biological target: human A3AR (Homo sapiens)
Construct: expressed in transfected cells
Assay: LOPAC library primary screen: single concentration (10 μM) inhibition of 25 nM CA200645 binding, PHERAstar FS
Structures can show the parent of a compound that is named as a salt.
Tag: yes if measured % 25 nM CA200645 binding is not below 90%, no if it is.

| Molecule | Group |
| --- | --- |
| Nc1nc(N)c2nc(-c3ccccc3)c(N)nc2n1 | yes |
| CC(C)NCC(O)c1ccc(NS(C)(=O)=O)cc1.Cl (racemic) [(±)-Sotalol hydrochloride] | yes |
| C1CCc2nnnn2CC1 | yes |
| CC(C)(C)NCC(O)c1ccccc1Cl (stereo not shown) [Tulobuterol hydrochloride] | yes |
| CC(C)Cc1ccc([C@H](C)C(=O)O)cc1 [S(+)-Ibuprofen] | yes |
| CC(C)Cn1c(=O)n(C)c(=O)c2[nH]cnc21 | yes |
| Fc1ccc([C@@H]2CCNC[C@H]2COc2ccc3c(c2)OCO3)cc1 [Paroxetine hydrochloride hemihydrate] | yes |
| CNCCCC1c2ccccc2C=Cc2ccccc21 [Protriptyline hydrochloride] | yes |
| O=C(O)c1cc(=O)c2c(Cl)cc(Cl)cc2[nH]1 | yes |
| CNCCc1ccc(O)c(O)c1.Cl [N-Methyldopamine hydrochloride] | yes |
| CCCC(CCC)C(=O)O [Valproic acid sodium] | yes |
| CCN(CC)CCOC(=O)c1cc(Cl)c(N)cc1OC.Cl [SDZ-205,557 hydrochloride] | no |
| N#CC(C#N)=C(N)/C(C#N)=C/c1ccc(O)cc1 | yes |
| O=C(O)[C@H]1CCCN[C@H]1C(=O)O (racemic) [(±)-cis-Piperidine-2,3-dicarboxylic acid] | yes |
| N=C(N)N/N=C/c1c(Cl)cccc1Cl [Guanabenz acetate] | yes |
| CC1CN(S(=O)(=O)c2cccc3cnccc23)CCN1.Cl.Cl (stereo not shown) | yes |
| O=c1[nH]c2ccccc2c2ccccc12 | no |
| Nc1nc2[nH]c(=O)cnc2c(=O)[nH]1 | yes |
| Cn1c(=O)c(-c2c(Cl)cccc2Cl)cc2cnc(Nc3ccc(N4CCOCC4)cc3)nc21 [PD173952, reference compound] | no |
| CCCC1O[C@@H]2C[C@H]3[C@@H]4CCC5=CC(=O)C=C[C@]5(C)[C@H]4[C@@H](O)C[C@]3(C)[C@]2(C(=O)CO)O1 (stereo partly shown) [Budesonide] | yes |
| NC(=O)C(=O)O [Sodium Oxamate] | yes |
| COc1ccc(/C=C2\COc3ccc(C)cc3C2=O)cc1O | yes |
| CCn1cnc2c(Nc3cccc(Cl)c3)nc(N[C@@H]3CCCC[C@@H]3N)nc21.Cl [CGP-74514A hydrochloride] | yes |
| COc1ccc(-c2cc(=O)c3c(O)c(OC)c(OC)cc3o2)cc1O | no |
| NCCCCN [Putrescine dihydrochloride] | yes |
| CC(=O)OCC(CCn1cnc2cnc(N)nc21)COC(C)=O | yes |
| O=Nc1ccc2oc(=O)ccc2c1 | yes |
| Cl.Fc1ccc(C(OCCCc2c[nH]cn2)c2ccc(F)cc2)cc1 | yes |
| O=C1NC(=O)/C(=C\c2ccc3nccnc3c2)S1 | no |
| Ic1ccccc1CNC1C2CCN(CC2)C1C(c1ccccc1)c1ccccc1.O=C(O)C(=O)O [L-703,606 oxalate salt hydrate] | yes |
| NC1(C(=O)O)CCc2cc(C(=O)O)ccc21 (stereo not shown) | yes |
| Nc1c(S(=O)(=O)O)cc(Nc2ccc(Nc3nc(Cl)nc(Nc4cccc(S(=O)(=O)O)c4)n3)c(S(=O)(=O)O)c2)c2c1C(=O)c1ccccc1C2=O | no |
| COCCc1ccc(OCC(O)CNC(C)C)cc1.O=C(O)C(O)C(O)C(=O)O (racemic) [(±)-Metoprolol (+)-tartrate] | no |
| N.N.[Cl][Pt][Cl] [Cisplatin] | no |
| COc1ccc2c(c1)c(CC(=O)O)c(C)n2C(=O)c1ccccc1 | no |
